biological target: SARS-CoV-2 3CL-protease (Severe acute respiratory syndrome coronavirus 2, UniProt P0DTD1); test: SARS-CoV-2 3C-like (3CL) protease fluorescence assay (FRET); type: biochemical; details: recombinant SARS-CoV-2 3CL-protease 10 nM, 30 min preincubation, run in duplicate; read-out: FRET IC50
Reported IC50 values follow for various molecules

{"columns": ["Molecule", "IC50"],
 "data": [
  ["C[C@@H](NC(=O)C(=O)N[C@@H](CC(C)(C)C)C(=O)N1C[C@]2(C[C@H]1C#N)C(=O)Nc1ccccc12)c1ccccc1 [Example 160]", "< 100 nM"],
  ["N#C[C@@H]1C[C@@]2(CN1C(=O)[C@H](CC1CC1)NC(=O)C(=O)Nc1c(Cl)cccc1C(F)(F)F)C(=O)Nc1ccccc12 [Example 194]", "< 100 nM"],
  ["CC(C)(C)C[C@H](NC(=O)C(=O)Nc1c(F)cc(F)cc1F)C(=O)N1C[C@]2(C[C@H]1C#N)C(=O)Nc1ccccc12 [Example 92]", "< 100 nM"],
  ["CC(C)(C)C[C@H](NC(=O)C(=O)NC1(c2ccc(C(F)(F)F)cc2)CC1)C(=O)N1C[C@]2(C[C@H]1C#N)C(=O)Nc1ccccc12 [Example 108]", "< 100 nM"],
  ["CC(C)(C)C[C@H](NC(=O)C(=O)NC1(c2ccccc2F)CC1)C(=O)N1C[C@]2(C[C@H]1C#N)C(=O)Nc1ccccc12 [Example 139]", "< 100 nM"],
  ["CC(C)(C)C[C@H](NC(=O)C(=O)NC1CCCC1)C(=O)N1C[C@]2(C[C@H]1C#N)C(=O)Nc1ccccc12 [Example 98]", "< 100 nM"]
]}

These measurements were taken from patent US12643905B2.
